Test: compounds binding Alexa647 anti-His antibody – biochemical, small-molecule microarray, 635 nm fluorescence, artefact control for SMM control protein annotation, primary screen (AID 1128);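 also: score merges feature fluorescence with signal-to-noise for each printed compound spot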
Conditions: higher = more signal

molecule	composite z-score
COCCn1c(C(=O)N(C)C)cc2c1C[C@H]1CN(C(=O)c3ccccc3)[C@@](Cc3ccc(F)cc3)(C(=O)OC)[C@@H]21	2.3
O=P(NCC1(CC2(c3ccccc3)CO2)CC1)(c1ccccc1)c1ccccc1 (stereo unspecified)	0.618
Cc1ccc(S[C@]2(C(=O)NCc3ccccc3)CC(=O)N(Cc3cc(C(F)(F)F)cc(C(F)(F)F)c3)[C@@H]2c2ccc(CO)cc2)cc1	-0.0768
CN1C(=O)C2C(C1=O)C1C=C(c3ccc(CO)cc3)C2C(C2CC2)N1Cc1cc2c(cc1Br)OCO2 (stereo unspecified)	2.81
O=C1O[C@@H](c2ccccc2)[C@@H](c2ccccc2)N2[C@@H](c3ccc(O)cc3)[C@]3(C(=O)Nc4ccccc43)[C@@H](C(=O)N3CCCCCCC3)[C@H]12	2.96
O=S(=O)(NCCCO)c1ccc(Br)cc1	0.309
C=C(CCCC)C(=O)CC[C@H](OC(C)=O)c1ccc(CO)o1	-0.273
O=C1OCCC/C=C\[C@H]2OC34C=CCN(Cn5nnc6ccccc65)C(=O)[C@H]3N(CCCO)C(=O)[C@@H]4C12 (stereo partly specified)	3.1
COC(=O)[C@@]1(Cc2ccccc2)[C@H]2c3cc(C(=O)N(C)C)n(Cc4cc(F)c(F)c(F)c4)c3C[C@H]2CN1C(=O)c1ccccc1	2.19
[N-]=[N+]=NCc1ccccc1C[C@]1(C(=O)N2CCOCC2)N=C(c2ccc(OCCCO)cc2)O[C@H]1c1ccccc1	1.22
O=C1C2C=CC(C(O)c3ccc(B(O)O)cc3)N(Nc3ccc([N+](=O)[O-])cc3)C2C(=O)N1c1ccccc1 (stereo unspecified)	0.359
Cc1cccc(/C=C/C=O)c1	-0.109
COCCCNC(=O)[C@@]1(Sc2ccc(C)cc2)CC(=O)N(Cc2ccccc2)[C@@H]1c1ccc(CO)cc1	0.068
Cc1cc(C)c(C(O)C2C=CC3C(=O)NC(=O)C3N2Nc2ccccn2)c(C)c1 (stereo unspecified)	0.735
CC(c1ccccc1)C(O)C1C=CC2C(=O)N(c3ccccc3)C(=O)C2N1Nc1ccccc1F (stereo unspecified)	1.35
[N-]=[N+]=NCc1ccccc1C[C@]1(C(=O)NCC(O)CO)COC(c2ccc(OCCCO)cc2)=N1 (stereo partly specified)	1.41
C=C(C(=O)CC[C@@H](OC(C)=O)c1ccc(OCCO)cc1)C(C)C	0.521
C=CCN1C(=O)[C@]2(Cc3ccccc31)N=C(c1ccc(OCCCO)cc1)O[C@@H]2c1ccccc1	0.599
CC(=O)NCCCC[C@@H]1NC(=O)[C@@H]2C[C@H](C(=O)NCc3ccc(F)cc3)[C@H](c3ccc(O)cc3)N2C1=O	2.04
COC(=O)[C@@]1(Cc2ccc(F)cc2)[C@H]2c3cc(C(=O)N(C)C)n(Cc4ccccn4)c3C[C@H]2CN1C(=O)c1ccccc1	1.12
[N-]=[N+]=Nc1ccccc1[C@@H]1OC(c2ccc(OCCCO)cc2)=N[C@]1(CCS(=O)(=O)c1ccccc1)C(=O)N1CCCCC1	2.13

---

Assay: JC-1 mitochondrial signal, unstimulated HepG2 cells – cell-based, JC-1 fluorescence, 24 h, 100 nL compound, profiling panel (AID 1167); also: test concentration not given here
Settings: HepG2 mitochondrial potential, higher = more signal
Each entry below carries its reported z-score.

compound	z-score
Cc1ccc(N2C(=O)c3ccccc3[C@](C)(C(=O)NCCN3CCOCC3)[C@@H]2c2ccc(CO)cc2)nc1	0.144
C=CC[C@@]1(C(N)=O)N=C(c2ccc(OCCCO)cc2)O[C@@H]1c1ccccc1N=[N+]=[N-]	-0.00877
O=C(NCC(O)CO)[C@]1(CCS(=O)(=O)c2ccccc2)N=C(c2ccc(OCCCO)cc2)O[C@@H]1c1ccccc1 (some centres undefined)	0.22
O=C1OCC=C[C@H]2OC34C=CCN(c5ccc6ccccc6c5)C(=O)[C@H]3N(CCO)C(=O)[C@@H]4[C@@H]12 (some centres undefined)	-0.542

---

Tested on: Noggin (protein binding on small-molecule microarray)
Test: small molecules binding Noggin protein – biochemical, 635/667 nm fluorescence, primary screen (AID 1095);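 also: score merges 667 nm feature fluorescence with signal to noise over triplicate slides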
Conditions: 635 nm fluorescence, higher = more signal

compound	composite z-score
CC(C)N1C(=O)c2ccccc2[C@](C)(C(=O)NCCCN(C)C)[C@@H]1c1ccc(CO)cc1	-0.818
O=C(NCc1ccccc1)[C@@H]1c2ccccc2C(=O)N(Cc2cc(F)cc(C(F)(F)F)c2)[C@H]1c1ccc(CO)cc1	0.561
Cc1ccc(S[C@]2(C(=O)NCC(F)(F)F)CC(=O)N(C3Cc4ccccc4C3)[C@@H]2c2ccc(CO)cc2I)cc1	-0.883
C=CCNC(=O)[C@H]1[C@@H]2C(=O)O[C@@H](c3ccccc3)[C@@H](c3ccccc3)N2[C@@H](c2ccc(OCCO)cc2)[C@]12C(=O)N(C(=O)OCCOC)c1ccc(C#CC3(O)CCCCCC3)cc12	1.6
C[N+](C)(C)CCCC[C@@H]1NC(=O)[C@@H]2C[C@H](C(=O)NCCCCCCNC(=O)CS)[C@H](c3cccc(OCCO)c3)N2C1=O	1.84
C=C(C(=O)CC[C@@H](OC(C)=O)c1ccc(OCCO)cc1)C(C)C	-0.053
CC(C)(C)OC(=O)CC[C@]1(C(=O)NCC(O)CO)N=C(c2ccc(OCCCO)cc2)O[C@H]1c1ccccc1CN=[N+]=[N-] (some centres not stated)	0.27

---

Documented composite z-score across a set of compounds
Assay: small molecules captured by biotinylated probe aFGF2 – biochemical, small-molecule microarray, fluorescence 635/667, stem cell growth factor project, primary screen (AID 1067);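 also: measures binding of biotinylated aFGF2 protein to printed compounds on slides; z-score merges feature fluorescence and signal-to-noise across triplicate slides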
Conditions: higher = more signal
value-kind: composite z-score

compound	observed-value
COC(=O)[C@@]1(Cc2ccc(OC)cc2)[C@H]2c3cc(C(=O)N(C)C)n(CCSCCO)c3C[C@H]2CN1C(=O)c1ccccc1	0.164
COC(=O)[C@@]1(Cc2ccc(OC)cc2)[C@H]2c3cc(C(=O)N(C)C)n(Cc4ccc(OC)c(OC)c4)c3C[C@H]2CN1C(=O)c1ccccc1	-0.0824
Cn1c2c(c3ccccc31)C(=O)C1NC2C=CC1(C)C(=O)OCc1ccccc1 (stereo not given)	-0.176
CN(C)CCCCNC(=O)[C@@H]1C[C@@H]2C(=O)N[C@@H](CCCCN)C(=O)N2[C@@H]1c1cccc(OCCO)c1	-0.138
C=CCC(OC(C)=O)[C@@H]1[C@@H](N(Cc2cc3ccccc3o2)C(=O)c2ccc(C)cc2)c2cc(OCCCO)ccc2N1C(=O)c1ccc(-c2ccccc2)cc1 (stereo not given in full)	0.0337
O=C1C[C@@](C(=O)O)(c2ccc([N+](=O)[O-])cc2)[C@@H](c2ccc(CO)cc2I)N1C1CCCCC1	-0.0256
COc1ccc([Si](C)(C)[C@@H]2[C@@H](CCO)O[C@]3(C(=O)N(Cc4cccc(N5CCCCC5=O)c4)c4ccccc43)[C@H]2C)cc1	-0.134
Cc1ccc(S[C@]2(C(=O)NCCN3CCOCC3)CC(=O)N(C3CCCCC3)[C@@H]2c2ccc(CO)cc2)cc1	-0.158
COc1ccc([Si](C)(C)[C@@H]2[C@@H](CCO)O[C@]3(C(=O)N(Cc4ccc(N5C(=O)c6cccc7cccc5c67)cc4)c4ccccc43)[C@H]2C)cc1	-0.0566
C#C[C@H](O[Si](C#CCCCCCC)(C(C)C)C(C)C)c1ccccc1	-0.0994

---

Assay: small molecules captured by biotinylated probe aFST – biochemical, small-molecule microarray, fluorescence 635/667, stem cell growth factor project, primary screen (AID 1086);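 also: score merges 667 nm fluorescence with signal-to-noise of each printed compound spot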
Conditions: higher = more signal
Label rule, in plain words: composite z-score of 0.8 and up is yes, under 0.8 is no.

molecule	category-label
Cc1ccc(N2C(=O)c3ccccc3[C@@H](C(=O)NCC(C)C)[C@@H]2c2ccc(CO)cc2)nc1	no
C=CCCN(CC#C[C@H]1Oc2ccccc2S(=O)(=O)N2CCC[C@@H]12)S(=O)(=O)c1ccc(C)cc1	no
COCC1C2CC[C@H]3C(OCc4ccc(F)cc4C(F)(F)F)OC[C@]4(C)[C@H]3C2=C(CN4C(=O)OC(C)(C)C)[C@H](C)C1COC (stereo not given in full)	yes
C=CC[C@@]1(C(=O)NCCN2CCOCC2)N=C(c2ccc(OCCCO)cc2)O[C@@H]1c1ccccc1CN=[N+]=[N-]	yes

---

Target: Carbonic anhydrase 2 (Homo sapiens)
Experiment: compounds binding carbonic anhydrase 2 – biochemical, small-molecule microarray, Alexa647-labelled CAII, profiling panel (AID 1122)
Conditions: CAII-A647 binding fluorescence, higher = more signal
Classes are defined on composite z-score with ranges group A (below 0.5), group B (0.5 to below 0.7), group C (0.7 or more)

compound	category-label
O=C1OCCC=C[C@H]2OC34C=CCN(c5ccc6ccccc6c5)C(=O)[C@H]3N(CCCCCCO)C(=O)[C@@H]4C12 (some centres undefined)	group C
COc1ccc([Si](C)(C)[C@H]2[C@H](CC(=O)N(CCO)Cc3ccccc3)O[C@@]3(C(=O)N(Cc4cccc(N5C(=O)c6cccc7cccc5c67)c4)c4ccccc43)[C@@H]2C)cc1	group B
CC1(C)C(=O)C(c2ccccc2)=C2CN3C(=O)N(CCc4ccccc4)C(=O)C3(Cc3ccccc3)C=C21 (centres undefined)	group B
COc1ccc([Si](C)(C)[C@H]2[C@H](CC(=O)N3CCC[C@H]3CO)O[C@@]3(C(=O)N(c4ccccc4)c4ccccc43)[C@@H]2C)cc1	group B
O=C1C2C=CC(C(O)c3ccccn3)N(Nc3ccccc3F)C2C(=O)N1c1ccccc1 (centres undefined)	group C
C=CCNC(=O)[C@H]1[C@@H]2C(=O)O[C@@H](c3ccccc3)[C@@H](c3ccccc3)N2[C@@H](c2ccc(O)cc2)[C@]12C(=O)Nc1ccc(C#Cc3ccc(OC)cc3)cc12	group A
Cc1ccc(S[C@]2(C(=O)NCCCN(C)C)CC(=O)N(Cc3ccccc3)[C@@H]2c2ccc(CO)cc2)cc1	group B
C[n+]1ccc2ccc(O)cc2c1	group B
CCCCC(=O)N(Cc1ccccc1F)[C@@H]1CC(C(=O)NCCO)=C[C@H](Oc2c(I)cc(CO)cc2OC)[C@H]1O	group B
O=[N+]([O-])c1ccc(C[n+]2ccc(CCCO)cc2)o1	group C
CCCC[C@@H]1C[C@H]1[C@@H](NC(=O)c1ccco1)c1ccccc1	group A
O=C1C2C=CC(C(O)c3ccc(B(O)O)cc3)N(Nc3ccc([N+](=O)[O-])cc3)C2C(=O)N1c1ccccc1 (centres undefined)	group B
C=CCN1C(=O)[C@]2(COC(c3ccc(OCCCO)cc3)=N2)Cc2ccccc21	group B
O=C(NCC(O)CO)[C@@]1(Cc2ccccc2)N=C(c2ccc(OCCCO)cc2)O[C@H]1c1ccccc1 (some centres undefined)	group C
O=c1cccc(-c2cccc3ccccc23)o1	group A
CCOC(=O)N1C(c2ccc(OCCCO)cc2)=NC(C(=O)OC)N1C(=O)OCC (centres undefined)	group C
COCCOC(=O)N1C(=O)[C@@]2(c3cc(C#Cc4ccc(OC)cc4)ccc31)[C@H](c1ccc(O)cc1)N1[C@H](c3ccccc3)[C@H](c3ccccc3)OC(=O)[C@H]1[C@@H]2C(=O)N1CCN(c2ncccn2)CC1	group A
CO[C@H]1O[C@H](CO)[C@@H](OC(=O)Nc2ccc(C(F)(F)F)cc2)[C@H](OC(=O)Nc2ccccc2)[C@@H]1OC(=O)Nc1ccccc1	group B
COCCn1c(C(=O)N2CCCC2)cc2c1C[C@H]1CN(C(=O)c3ccccc3)[C@@](Cc3ccc(OC)cc3)(C(=O)OC)[C@@H]21	group C
O=C1C2C=CC(C(O)C3CC=CCC3)N(n3cnnc3)C2C(=O)N1Cc1ccccc1 (centres undefined)	group C
COc1ccccc1CN1C(=O)c2ccccc2[C@](Cc2ccccc2I)(C(=O)NCc2ccccc2)[C@@H]1c1ccc(CO)cc1	group A
